Numbers sourced from the supplement of paper PMC6757056.

B1: library; a variant is named by its letters at N, in order (parent)
chain: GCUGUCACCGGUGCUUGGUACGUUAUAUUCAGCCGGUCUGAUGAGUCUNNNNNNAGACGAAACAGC

variants of: B1; experiment: normalized RNA/DNA level without ligand (relative to sTRSVctl = 100) (log10 (% of sTRSVctl)); HEK293T overexpressing SLC46A1; higher = less ribozyme self-cleavage, higher mRNA level; conditions: without (6R,S)-folinic acid; ligand present: no
Use t when the recorded normalized RNA/DNA level without ligand (log10) is no lower than 2; use f when it is lower.

mutant_code=AGCUAG group=f
mutant_code=AACCUC group=t
mutant_code=AAAAAG group=f
mutant_code=UUCAGC group=t
